Reported abundance fitness is given for each of the following variants.
B1: POU domain, class 5, transcription factor 1, residues 134 to 212; numbered along this chain, Q01860 (parent)
chain: EESQDIKALQKELEQFAKLLKQKRITLGYTQADVGLTLGVLFGKVFSQTTICRFEALQLSFKNMCKLRPLLQKWVEEAD

variants of: B1; experiment: abundance fitness (aPCA) (normalised: wild type 0, dead -1); higher = more abundant; growth selection in yeast, the domain comes from the species named; conditions: Homo sapiens
# print the numeric value only

Sample EESQDIKALQKRLEQFAKLLKQKRITLGYTQADVGLTLGVLFGKVFSQTTICRFEALQLSFKNMCKLRPLLQKWVEEAD — what was its abundance fitness? -0.07

Sample EESQDIKALQKELEQFAKLLKQKRITLGYQQADVGLTLGVLFGKVFSQTTICRFEALQLSFKNMCKLRPLLQKWVEEAD — what was its abundance fitness? -0.664

Sample EESQDIKALQKQLEQFAKLLKQKRITLGYTQADVGLTLGVLFGKVFSQTTICRFEALQLSFKNMCKLRPLLQKWVEEAD — what was its abundance fitness? -0.185

Sample EESQDIKALQKELEQFAKLLKQKRITLGYTQADVGLTLGVLFGKVFSQTTICRFEALQLSFKNMCKLRPLSQKWVEEAD — what was its abundance fitness? -0.911

Sample EESQDIKALQKELEQFAKLLKQARITLGYTQADVGLTLGVLFGKVFSQTTICRFEALQLSFKNMCKLRPLLQKWVEEAD — what was its abundance fitness? -0.608

Sample EESQDIKALQKELEQFAKLLKQKRITLGYTQADVGLTLGVLFGKVFSSTTICRFEALQLSFKNMCKLRPLLQKWVEEAD — what was its abundance fitness? 0.208

Others:
Sample EESQDIKALQKELEEFAKLLKQKRITLGYTQADVGLTLGVLFGKVFSQTTICRFEALQLSFKNMCKLRPLLQKWVEEAD — what was its abundance fitness? 0.07
